- Protocol Description: Cytotoxicity against human MRC5 cells after 72 hrs by MTT assay
- Assay type: cell-based
Exercise: for every item that follows, state its recorded GI50 at 72 h.

Asked: Endpoint output: GI50 at 72 h of COc1cc(OC)c(/C=C/[S+]([O-])Cc2ccc(OC)c(N)c2)c(OC)c1 (configuration not stated) . Value?
Given back: > 30 µM

Asked: Now consider COc1cc(/C=C/S(=O)(=O)Cc2ccc(OC)c(N)c2)cc(OC)c1 .
Given back: > 30 µM

Asked: Now consider COc1ccc(CS(=O)(=O)/C=C/c2ccc(OC)c(OC)c2OC)cc1N .
Given back: > 30 µM

Asked: Now consider COc1ccc(CS(=O)(=O)/C=C/c2c(OC)cccc2OC)cc1[N+](=O)[O-] .
Given back: > 30 µM

Asked: Now consider COc1cc(OC)c(/C=C/S(=O)(=O)Cc2ccc(OC)c(NC(C)=O)c2)c(OC)c1 .
Given back: 0.81 µM

Asked: Now consider COc1ccc(CS(=O)(=O)CC(=O)Nc2c(C)cc(C)cc2C)cc1[N+](=O)[O-] .
Given back: 28 µM

Asked: Now consider COc1cc(OC)c(/C=C/S(=O)(=O)Cc2ccc(OC)c([N+](=O)[O-])c2)c(OC)c1 .
Given back: 2.91 µM

Asked: Now consider COc1cc(OC)c(NC(=O)CS(=O)(=O)Cc2ccc(OC)c([N+](=O)[O-])c2)c(OC)c1 .
Given back: > 30 µM

Asked: Now consider COc1ccc(OC)c(NC(=O)CS(=O)(=O)Cc2ccc(OC)c([N+](=O)[O-])c2)c1 .
Given back: > 30 µM

Asked: Now consider COc1ccc(CS(=O)(=O)CC(=O)Nc2ccccc2)cc1N .
Given back: > 30 µM

Asked: Now consider COc1ccc(CS(=O)(=O)CC(=O)Nc2ccccc2)cc1[N+](=O)[O-] .
Given back: > 30 µM

Asked: Now consider COc1cc(OC)c(/C=C/S(=O)(=O)Cc2ccc(OC)c(N)c2)c(OC)c1 .
Given back: 0.08 µM

Asked: Now consider COc1ccc(CS(=O)(=O)CC(=O)Nc2c(C)cc(C)cc2C)cc1N .
Given back: > 30 µM

Asked: Now consider COc1ccc(CS(=O)(=O)/C=C/c2c(OC)cccc2OC)cc1N .
Given back: 17.1 µM

Asked: Now consider COc1ccc(CS(=O)(=O)/C=C/c2ccc(OC)c(OC)c2OC)cc1[N+](=O)[O-] .
Given back: > 30 µM

Asked: Now consider COc1cc(OC)c(/C=C/S(=O)(=O)Cc2ccc(OC)c(NCC(=O)O)c2)c(OC)c1 [RIGOSERTIB] .
Given back: 0.71 µM

Asked: Now consider COc1cc(/C=C/S(=O)(=O)Cc2ccc(OC)c([N+](=O)[O-])c2)cc(OC)c1 .
Given back: > 30 µM
